- TGT: T1, human ALK7-EK-Fc comprising protein (human, UniProt Q8NER5 22-113)
- T1 construct: also called ALK7-Fc comprising protein; Human ALK7-Fc comprising protein; not shown: 'EK' segment between ALK7 and Fc; Fc portion
- T1 sequence: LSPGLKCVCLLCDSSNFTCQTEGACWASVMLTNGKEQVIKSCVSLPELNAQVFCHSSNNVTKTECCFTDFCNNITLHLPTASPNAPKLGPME
- MEASUREMENT PROTOCOL: SPR (Biacore T100/T200), antibody captured on FAB chip, ALK7-Fc protein as analyte, 1:1 model
OBSERVED PROPERTY: Kd (nM)
The response must be a number in nM with no trailing unit.

For orientation, consider the following solved cases.
N02 (antibody, V domains shown) VH: QLQLQESGPGLVKPSETLSLTCTVSGGSISSSAYYWAWIRQPPGKGLEWIGSIYLSGSTTYNPSLKSRVTISVDTSKNQFSLKLSSVTAADTAVYYCARDGRYQSRSPDYYYGMDVWGQGTTVTVSS VL: EIVLTQSPGTLSLSPGERATLSCRASQSVSSSYLAWYQQKPGQAPRLLIYGASSTAYGIPDRFSGSGSGTDFTLTISRLEPEDFAVYYCQQLVAYPFTFGGGTKVEIK; 0.87
Q04 (antibody, V domains shown) VH: QVQLVQSGAEVKKPGASVKVSCKASGYTFAGYNMHWVRQAPGQGLEWVGIINPNSGWTNYAQKFQGRVTMTRDTSVSAAYMELSRLRSDDTAVYYCARDPVGARYEVFDYWGQGTLVTVSS VL: EIVMTQSPATLSVSPGERATLSCKASQSVSSNLAWYQQKPGQAPRLLIYGASTRATGIPARFSGSGSGTEFTLTISSLQSEDFAVYYCQQAVKFPLTFGGGTKVEIK; 1.42

# ---- query binder ----
Request: Return reported Kd; argument: P03 (antibody, V domains shown) VH: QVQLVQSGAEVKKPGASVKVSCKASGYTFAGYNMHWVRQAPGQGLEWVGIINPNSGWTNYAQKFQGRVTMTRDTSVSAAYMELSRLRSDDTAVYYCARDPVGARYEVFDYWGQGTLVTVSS VL: EIVMTQSPATLSVSPGERATLSCQASQSVSSNLAWYQQKPGQAPRLLIYGASTIATGIPARFSGSGSGTEFTLTISSLQSEDFAVYYCQQAYAFPLTFGGGTKVEIK
Response: 0.39

Origin of values: patent US20220348685A1
